# Test system: NCI-H460
# TEST_DETAILS: NCI tumour cell line growth inhibition, 48 h
Calls of active or inactive are those of the source. No stated cut-off is given here; in the data, active = GI50 up to about 1.1 µM and inactive = higher.
Recorded GI50 for the following molecules

Given the entry COc1ccc(NC(=O)/C(Cc2cc(=O)oc3cc(O)ccc23)=N\NC(C)(C)C)c(OC)c1 , report its measured GI50.
> 100 µM (inactive)

What does the data say about its GI50? Entry: Cc1ccc2[nH]c(=O)c(C(C#N)c3ccccc3)nc2c1 (stereo not given)
72.3 µM (inactive)

Can you look up the measured GI50 of O=C(CSc1nnc(-c2ccc(/N=C\c3ccc(Cl)cc3)cc2)o1)Nc1cccc(Cl)c1 for me?
> 100 µM (inactive)

Recorded GI50 for FC(F)(F)c1cccc(-c2nc3ccccc3c3c2[C@@]2(N4CCCC4)CCCC[C@@H]32)c1 , please?
28.1 µM (inactive)

Now look at this entry.
Would you mind telling me what GI50 value was observed for Cc1c(/C=N/NC(=S)Nc2ccccc2Cl)c(=O)n(-c2ccccc2)n1C ?
25.4 µM (inactive)

---

# System: KM-20L2
# TEST_DETAILS: NCI tumour cell line growth inhibition, 48 h
Active and inactive are the calls of the source. Cut-off read from the data, not from the text of the source: active = GI50 up to about 1.1 µM and inactive = higher.
QUANTITY_MEASURED: GI50

# input molecule: O=C(N[C@H](CO)[C@H](O)c1ccc([N+](=O)[O-])cc1)C(Cl)Cl ; wanted: its GI50
> 100 µM (inactive)

Further cases:
Sample CCOc1ccc(NC2=NC(=O)C(CC(=O)Nc3ccc(Cl)cc3Cl)S2)cc1 (stereo unspecified) — what was its GI50?
> 100 µM (inactive)

Consider the molecule Oc1ccccc1/C=N/c1ccccc1/N=C/c1ccccc1O and give its measured GI50.
> 100 µM (inactive)

Please look up its GI50: O=C1c2cccc(NCCNCCO)c2C(=O)c2cccc(NCCNCCO)c21
1.18 µM (inactive)

Which GI50 value is on record for O=CNc1cccc2c3c([nH]c12)CCCCCC3 ?
> 100 µM (inactive)

// lookup GI50 for Cc1ccccc1N1C(=O)/C(=C/c2ccc(N(CCC#N)CCC#N)cc2)N=C1c1cc([N+](=O)[O-])ccc1Cl
> 100 µM (inactive)

Entry under review: O=C(CSc1nnc(-c2ccc(/N=C\c3ccc(Cl)cc3)cc2)o1)Nc1cccc(Cl)c1 . Reported GI50?
> 100 µM (inactive)

What GI50 value was documented for this molecule, Cc1ccc2[nH]c(=O)c(C(C#N)c3ccccc3)nc2c1 (stereo unspecified) ?
37.2 µM (inactive)

Consider the molecule shown here: Cn1nc(-c2ccccc2)c(C(=O)/C=C/c2ccccc2)c(N2CCOCC2)c1=O What is its recorded GI50?
18.1 µM (inactive)

Consider the molecule shown here: Cc1ccc(NC(=O)C(=O)CC(=O)c2c(C)[n+]([O-])c3ccccc3[n+]2[O-])cc1C What is its recorded GI50?
91.8 µM (inactive)

---

# System: SF-539
# TEST_DETAILS: NCI tumour cell line growth inhibition, 48 h
The source made the active and inactive calls. No stated cut-off is given here; in the data, active = GI50 up to about 1.1 µM and inactive = higher.
# GI50 per entry

Consider the worked cases shown below.
Which value of GI50 has been reported for COC(=O)C1(N2CCOCC2)CCC([C@@H](c2ccccc2)C(C)[N+](=O)[O-])C1 (stereo not given in full) in the records?
> 100 µM (inactive)

Bench note: what GI50 did CCN1C(=O)C/C(=C\C(C)=O)Nc2ccccc21 show?
> 100 µM (inactive)

# GI50 lookup, item CC1=C(C(=O)Nc2c(C)cccc2C)C(c2ccccc2Cl)C(C(=O)Nc2c(C)cccc2C)=C(C)N1
> 100 µM (inactive)

Would you mind telling me what GI50 value was observed for O=C1CCc2c3c(c4c([nH]c5ccccc54)c2CC1)C(=O)NC3=O ?
5.36 µM (inactive)

State the recorded GI50 for this entry: O=C(/C=C/c1ccccc1)/C=N/N1C(=S)N(c2ccccc2)C(=N\c2ccccc2)/C1=N/c1ccccc1
> 100 µM (inactive)

Further cases:
State the recorded GI50 for this entry: CCN(C1=CC(=O)NC2CCCCN12)c1ccccc1 (stereo not given)
> 100 µM (inactive)

Entry CC(=O)C1=CCC2c3[nH]c4ccccc4c3CCN2C1 (stereo not given) : reported GI50 = ?
26.6 µM (inactive)
